Entry source: DBAASP

Provide the reported MIC of each item.

Input line: Provide the reported MIC (system: Staphylococcus aureus ATCC 29213) for CC(C)C[C@H](NC(=O)[C@H](C)NC(=O)[C@H](CCCCN)NC(=O)[C@H](CC(C)C)NC(=O)[C@H](CC(C)C)NC(=O)[C@H](CCCCN)NC(=O)[C@H](CCCCN)NC(=O)[C@@H](N)CC(C)C)C(=O)N[C@@H](CCCCN)C(=O)N[C@@H](CCCCN)C(=O)N[C@@H](CC(C)C)C(=O)N[C@@H](CC(C)C)C(=O)N[C@@H](CCCCN)C(=O)N[C@@H](CC(C)C)C(=O)N[C@@H](C)C(=O)NCC(=O)O [LKKLLKALKKLLKLAG]
Output line: 10 µM

Input line: Provide the reported MIC (system: Staphylococcus aureus ATCC 29213) for CC(C)C[C@H](N)C(=O)N[C@@H](CO)C(=O)N[C@@H](CCCN=C(N)N)C(=O)N[C@H](C(=O)N[C@@H](CC(=O)O)C(=O)O)C(C)C [LSRVD]
Output line: > 217 µM

Input line: Provide the reported MIC (system: Staphylococcus aureus ATCC 29213) for CC[C@H](C)[C@H](NC(=O)[C@H](CCCN=C(N)N)NC(=O)[C@H](CCC(N)=O)NC(=O)[C@@H](NC(=O)[C@@H](NC(=O)[C@H](CCCN=C(N)N)NC(=O)[C@H](CCCCN)NC(=O)[C@@H](N)Cc1ccccc1)[C@@H](C)CC)C(C)C)C(=O)N[C@@H](CCCCN)C(=O)N[C@@H](CC(=O)O)C(=O)N[C@@H](CO)C(=O)N[C@@H](CC(C)C)C(=O)N[C@@H](CCCN=C(N)N)C(=O)O [FKRIVQRIKDSLR]
Output line: > 40 µM

Input line: Provide the reported MIC (system: Staphylococcus aureus ATCC 29213) for CC[C@H](C)[C@H](NC(=O)[C@H](CCCCN)NC(=O)CNC(=O)[C@@H]1CCCN1C(=O)[C@H](Cc1cnc[nH]1)NC(=O)[C@H](CC(C)C)NC(=O)[C@H](CC(C)C)NC(=O)[C@H](Cc1ccc(O)cc1)NC(=O)[C@H](CS)NC(=O)CN)C(=O)N[C@@H](CS)C(=O)N[C@@H](Cc1ccc(O)cc1)C(=O)O [GCYLLHPGKICY]
Output line: > 64 µM

Input line: Provide the reported MIC (system: Staphylococcus aureus ATCC 29213) for CC[C@H](C)[C@H](N)C(=O)N[C@@H](CS)C(=O)N[C@@H](CCCN=C(N)N)C(=O)N[C@@H](CCCCN)C(=O)N1CCC[C@H]1C(=O)N[C@H](C(=O)N[C@H](C(=O)N[C@@H](CS)C(=O)N[C@@H](CCCN=C(N)N)C(=O)N[C@@H](CCCCN)C(=O)N1CCC[C@H]1C(=O)N[C@H](C(N)=O)[C@@H](C)CC)[C@@H](C)CC)[C@@H](C)CC [ICRKPIICRKPI]
Output line: > 64 µM

Input line: Provide the reported MIC (system: Staphylococcus aureus ATCC 29213) for CC[C@H](C)[C@H](N)C(=O)N[C@@H](Cc1ccccc1)C(=O)N[C@@H](Cc1c[nH]c2ccccc12)C(=O)N[C@@H](CC(C)C)C(=O)N[C@@H](Cc1ccccc1)C(=O)N[C@@H](CCCN=C(N)N)C(=O)NCC(=O)N[C@@H](CCCCN)C(=O)N[C@@H](C)C(=O)N[C@@H](CC(=O)O)C(=O)N[C@H](C(=O)N[C@@H](C)C(=O)N[C@@H](CC(C)C)C(N)=O)C(C)C [IFWLFRGKADVAL]
Output line: > 83.3 µM
